Entry source: PubChem BioAssay (Tox21)

# ASSAY_PROCEDURE: qHTS assay to identify small molecule agonists of the AP-1 signaling pathway - cell viability counter screen (AID 1159525); note: nearly all actives have a fitted effect of over 55% in size
# CONDITION: ME-180 (cervical carcinoma) AP-1-bla cells viability, ATP luminescence, 5 h; series mostly up to 76.8 µM
Records with an inconclusive call do not appear. Active and inactive are the calls of the source. Calls come from the whole dose curve.
METRIC_NAME: viability change, negative = cytotoxic

INSERT INTO measurements (compound, metric_name, result) VALUES
  ('CCOc1ccccc1OCC1CNCCO1 (configuration not stated)', 'viability change, negative = cytotoxic', 'inactive'),
  ('CC1(C)CC(OC(=O)CCCCCCCCC(=O)OC2CC(C)(C)NC(C)(C)C2)CC(C)(C)N1', 'viability change, negative = cytotoxic', '-4.65% [at 15.8 µM] (inactive)'),
  ('CCOC(CN1CCN(CC(C)C(=O)c2ccccc2)CC1)c1ccccc1 (configuration not stated)', 'viability change, negative = cytotoxic', '14.4% [at 15.8 µM] (inactive)'),
  ('N[C@@H](CSCCCO)C(=O)O', 'viability change, negative = cytotoxic', '8.07% [at 15.8 µM] (inactive)'),
  ('COP(=O)(O)OP(=O)(O)OC', 'viability change, negative = cytotoxic', 'inactive'),
  ('N[C@@H](Cc1ccc(O)cc1)C(=O)O', 'viability change, negative = cytotoxic', '1.17% [at 6.97 µM] (inactive)'),
  ('CC(=O)CCC1=C(C)CCCC1(C)C', 'viability change, negative = cytotoxic', 'inactive');
